Test system: IgG
Assay notes: Affinity to IgG by surface plasmon resonance (SPR)
Type: binding
Conditions used: Biacore 8K, 25° C., IgG on CM5 chip; read-out: IgG SPR Binding Kd
Where a SMILES comes first, the peptide text is derived from it. Bridges are numbered along the chain shown (N, C = ends). [ ]: non-standard residue; d: D form. Pro(4S-NH2) = N[C@@H]1CN[C@H](C(=O)O)C1; hSer = N[C@@H](CCO)C(=O)O
// Kd lookup, one value per entry

CC(C)C[C@@H]1NC(=O)[C@H](C)NC(=O)CNC(=O)[C@H](CC(C)C)NC(=O)[C@H](Cc2cnc[nH]2)NC(=O)[C@H](Cc2c[nH]c3ccccc23)NC(=O)[C@H](C)NC(=O)[C@@H]2CSSC[C@H](NC(=O)[C@H](Cc3c[nH]c4ccccc34)NC(=O)[C@H](C(C)C)NC1=O)C(=O)N[C@@H]([C@@H](C)O)C(=O)N1CCC[C@@H]1C(=O)N1C[C@@H](N)C[C@H]1C(=O)N[C@@H](CC(=O)O)C(=O)N2 [Intermediate 17] (cyclo(ALVWCT[dP][Pro(4S-NH2)]DCAWHLG); disulfide 5-10); < 100 nM

Consider the additional compound presented here.
In: Write Kd of CC(C)C[C@@H]1NC(=O)[C@H](Cc2cnc[nH]2)NC(=O)[C@H](Cc2c[nH]c3ccccc23)NC(=O)[C@H](CCO)NC(=O)[C@@H]2CSSC[C@H](NC(=O)[C@H](Cc3c[nH]c4ccccc34)NC(=O)[C@H](C(C)C)NC(=O)[C@H](CC(C)C)NC(=O)[C@H](CCC(=O)O)NC(=O)CNC1=O)C(=O)N[C@@H]([C@@H](C)O)C(=O)N1CCC[C@@H]1C(=O)N1C[C@@H](N)C[C@H]1C(=O)N[C@@H](CC(=O)O)C(=O)N2 [Intermediate 21] (cyclo(CT[dP][Pro(4S-NH2)]DC[hSer]WHLGELVW); disulfide 1-6) ; system used: IgG
Out: < 100 nM

====

Test system: IgG
Assay notes: Affinity to IgG by surface plasmon resonance (SPR)
Assay type: binding
Conditions used: SPR; read-out: IgG KD
pKd: −log10 of the molar value.
Measured attribute: pKd

In: Give me measured pKd, please, for this compound: CC(C)C[C@@H]1NC(=O)[C@H](Cc2cnc[nH]2)NC(=O)[C@H](Cc2c[nH]c3ccccc23)NC(=O)[C@H](C)NC(=O)[C@@H]2CSSC[C@H](NC(=O)[C@H](Cc3c[nH]c4ccccc34)NC(=O)[C@H](C(C)C)NC(=O)[C@H](CC(C)C)NC(=O)[C@H](CCC(=O)O)NC(=O)CNC1=O)C(=O)N[C@@H]([C@@H](C)O)C(=O)N1CCC[C@@H]1C(=O)N1C[C@@H](NC(=O)CCCc3cn(C[C@H]4OC[C@H](Nc5cncc(C(F)(F)F)n5)[C@@H](O)[C@H]4O)nn3)C[C@H]1C(=O)N[C@@H](CC(=O)O)C(=O)N2 [Compound 51]
Out: > 7.00

====

Test system: ASGPR receptor on the cell surface (HepG2 cells) (Homo sapiens)
Construct: host or cells: HepG2
Sequence (P07306 whole entry): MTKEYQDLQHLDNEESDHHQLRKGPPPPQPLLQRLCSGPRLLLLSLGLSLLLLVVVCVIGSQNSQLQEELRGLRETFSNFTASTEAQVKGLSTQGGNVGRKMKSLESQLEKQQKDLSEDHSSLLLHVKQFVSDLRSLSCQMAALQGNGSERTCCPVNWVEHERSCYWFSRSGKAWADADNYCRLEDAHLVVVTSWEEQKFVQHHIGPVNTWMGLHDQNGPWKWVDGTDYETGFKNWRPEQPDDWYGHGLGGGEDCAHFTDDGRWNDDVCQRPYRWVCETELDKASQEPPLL
Sequence (P07307 whole entry partner): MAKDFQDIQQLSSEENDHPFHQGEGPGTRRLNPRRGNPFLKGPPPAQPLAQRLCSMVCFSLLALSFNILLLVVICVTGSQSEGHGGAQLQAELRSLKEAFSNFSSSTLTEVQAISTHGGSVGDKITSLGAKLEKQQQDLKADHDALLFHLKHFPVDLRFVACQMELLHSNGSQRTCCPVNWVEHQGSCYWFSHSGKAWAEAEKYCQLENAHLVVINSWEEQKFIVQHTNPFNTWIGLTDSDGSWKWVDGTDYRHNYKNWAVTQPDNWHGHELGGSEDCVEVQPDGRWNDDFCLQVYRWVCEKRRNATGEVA
Assay notes: Ternary complex formation assay (flow cytometry, HepG2)
Assay type: cell-based
Source text: The ternary complex formation assay is designed to identify the concentration of Degrader required to form a complex between the degrader, a constant concentration of fluorescently-labeled antibody and the ASGPR receptor on the cell surface. The peak mean fluorescence intensity (MFI) occurs at the optimal degrader concentration for ternary complex formation. Sub-optimal concentrations of degrader (too much or too little) results in fewer complexes formed and a reduced […]. […]
Measured attribute: EC50

In: Write down EC50 measured for item CC(C)C[C@@H]1NC(=O)[C@H](Cc2c[nH]cn2)NC(=O)[C@H](Cc2c[nH]c3ccccc23)NC(=O)[C@H](C)NC(=O)[C@@H]2CSSC[C@H](NC(=O)[C@H](Cc3c[nH]c4ccccc34)NC(=O)[C@H](C(C)C)NC(=O)[C@H](CC(C)C)NC(=O)[C@H](CCC(=O)O)NC(=O)CNC1=O)C(=O)N[C@@H]([C@@H](C)O)C(=O)N1CCC[C@@H]1C(=O)N1C[C@H](NC(=O)c3ccc(N4CCC(CN5CCN(C[C@H]6OC[C@H](Nc7cncc(C(F)(F)F)n7)[C@@H](O)[C@H]6O)CC5)CC4)cc3)C[C@H]1C(=O)N[C@@H](CC(=O)O)C(=O)N2
Out: < 100 nM
